Target Under Test: human prostanoid DP1 receptor (Homo sapiens)
Construct: expressed in transfected cells
Sequence (Q13258 whole entry): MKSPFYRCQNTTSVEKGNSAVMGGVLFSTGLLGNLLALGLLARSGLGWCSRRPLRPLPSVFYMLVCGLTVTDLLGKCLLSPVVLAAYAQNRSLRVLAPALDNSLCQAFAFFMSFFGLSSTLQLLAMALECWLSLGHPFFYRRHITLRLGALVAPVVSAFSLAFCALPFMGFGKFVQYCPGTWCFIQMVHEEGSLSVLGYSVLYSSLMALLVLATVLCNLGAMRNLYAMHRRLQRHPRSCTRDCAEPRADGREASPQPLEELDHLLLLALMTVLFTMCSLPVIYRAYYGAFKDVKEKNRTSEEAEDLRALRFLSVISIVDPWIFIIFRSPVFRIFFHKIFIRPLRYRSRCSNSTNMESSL
Method: FLIPR Ca2+ signaling antagonist assay, DP1 receptor stable cell line
Assay type: cell-based
Measurement Parameters: HEK-293 EBNA stable cell line; standard agonist BW 245C; NA = inactive (no antagonism or Kb 10,000 nM); PAg, Ag not defined
Kb for assorted molecules
Your answer is read as nM, so omit the unit and give the number.

| Molecule | Kb [nM] |
| --- | --- |
| CCCCCCCOc1ccc(Br)cc1Cn1nc(CCC(=O)O)cc1C | 400 |
| Cc1cc(CC(C)C(=O)O)nn1Cc1cc(Cl)ccc1OCC1CCCC1 (racemic) | 450 |
| Cc1cc(CCC(=O)O)nn1Cc1cc(Cl)ccc1OCc1ccc(Cl)cc1Cl | 500 |
| COc1ccc(OCC2CC2)c(Cn2nc(CCC(=O)O)cc2C)c1 | 1700 |
| Cc1cc(CCC(=O)O)nn1Cc1cc(Cl)ccc1OCC1CCCCC1 | 240 |
| Cc1cc(CCC(=O)O)nn1Cc1cc(Cl)ccc1CCC1CCCC1 | 600 |
| CCC(C)COc1ccc(Br)cc1Cn1nc(CCC(=O)O)cc1C (stereo not drawn) | 360 |
| Cc1cc(CCC(=O)NS(=O)(=O)C(F)(F)F)nn1Cc1cc(Cl)ccc1OCC(C)C | 800 |

Ask: Return Kb measured with human prostanoid DP1 receptor (Homo sapiens) given this molecule: `CCC(CC)Oc1ccc(Cl)cc1Cn1nc(CCC(=O)O)cc1C`
Result: 500

###

log10 of Kb for assorted compounds
Target Under Test: human prostanoid EP3 receptor (Homo sapiens, UniProt P43115)
Construct: expressed in transfected cells
Sequence (P43115 1-390): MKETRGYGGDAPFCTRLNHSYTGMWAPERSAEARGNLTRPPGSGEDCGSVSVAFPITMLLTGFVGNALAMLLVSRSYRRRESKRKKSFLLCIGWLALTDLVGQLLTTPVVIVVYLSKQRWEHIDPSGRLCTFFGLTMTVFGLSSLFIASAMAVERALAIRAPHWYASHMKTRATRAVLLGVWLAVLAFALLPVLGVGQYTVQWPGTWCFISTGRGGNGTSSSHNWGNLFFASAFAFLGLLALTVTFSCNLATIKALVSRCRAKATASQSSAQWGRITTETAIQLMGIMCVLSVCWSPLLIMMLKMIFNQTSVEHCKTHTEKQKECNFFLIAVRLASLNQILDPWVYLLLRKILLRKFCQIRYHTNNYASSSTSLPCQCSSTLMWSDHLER
Method: FLIPR Ca2+ signaling antagonist assay, EP3 receptor stable cell line
Type: cell-based
Measurement Parameters: HEK-293 EBNA stable cell line; standard agonist PGE2; NA = inactive (no antagonism or Kb 10,000 nM); PAg, Ag not defined
Hi team, quick reminder: these entries are log10 of Kb (µM).

Worked examples, 3 compounds total:
| Compound | Endpoint | Test Value |
| --- | --- | --- |
| CCC(CC)COc1ccc(Br)cc1Cn1nc(CCC(=O)NS(=O)(=O)C(F)(F)F)cc1C | log10 of Kb | 0.00 |
| Cc1cc(CCC(=O)NS(=O)(=O)CC(F)(F)F)nn1Cc1cc(Cl)ccc1OCc1ccc(Cl)cc1 | log10 of Kb | 0.65 |
| Cc1cc(CCC(=O)NS(=O)(=O)C(F)(F)F)nn1Cc1cc(Cl)ccc1OCC1CCCC1 | log10 of Kb | 0.23 |

Ask: Item `Cc1cc(CCC(=O)NS(=O)(=O)c2ccccc2)nn1Cc1cc(Cl)ccc1OCc1ccc(Cl)cc1` has what recorded log10 of Kb?
Result: 0.40

Ask: Item `Cc1cc(CCC(=O)O)nn1Cc1cc(Cl)ccc1OCCCC(C)C` has what recorded log10 of Kb?
Result: 0.76

Ask: Item `CCC(CC)COc1ccc(Br)cc1Cn1nc(CCC(=O)O)cc1C(C)C` has what recorded log10 of Kb?
Result: 0.57

Ask: Item `Cc1cc(CC(C)(C)C(=O)O)nn1Cc1cc(Br)ccc1OCC1CCCC1` has what recorded log10 of Kb?
Result: 0.51

Ask: Item `CCC(CC)COc1ccc(Br)cc1Cn1nc(CCC(=O)O)cc1C(C)(C)C` has what recorded log10 of Kb?
Result: 0.82

Ask: Item `Cc1cc(CCC(=O)O)nn1Cc1cc(Cl)ccc1OCc1ccc(Cl)cc1Cl` has what recorded log10 of Kb?
Result: 0.85

This collection of values is drawn from patent US9394284B2.
